Taken from patent US8471004B2.

targetOfAssay: human chemokine receptor 2 isoform B (Homo sapiens, UniProt P41597)
Sequence (P41597 1-360 isoform P41597-2): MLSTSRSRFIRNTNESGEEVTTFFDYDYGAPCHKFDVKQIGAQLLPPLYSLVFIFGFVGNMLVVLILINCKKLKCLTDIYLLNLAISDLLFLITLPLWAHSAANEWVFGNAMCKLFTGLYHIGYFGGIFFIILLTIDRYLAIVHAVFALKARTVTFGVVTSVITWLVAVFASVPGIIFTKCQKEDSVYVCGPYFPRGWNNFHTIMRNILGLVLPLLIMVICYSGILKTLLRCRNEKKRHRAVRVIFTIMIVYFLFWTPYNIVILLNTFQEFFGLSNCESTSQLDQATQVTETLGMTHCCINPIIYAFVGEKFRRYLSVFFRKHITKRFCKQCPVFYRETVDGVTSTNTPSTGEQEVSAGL
assayProcedure: Calcium mobilization assay (CHOK1-CCR2B-A5 cells, FLIPR, MCP-1 stimulated)
measurementSetup: Ca mobilisation assay for CCR2, antagonist activity, 50% inhibition of specific calcium increases after 20 nM MCP-1
Procedure: CHOK1-CCR2B-A5 cells (from Euroscreen) stably overexpressing the human chemokine receptor 2 isoform B were cultured in Nutrient Hams F12 medium supplemented with 5% FBS, 100 U/ml penicillin, 100 μg/ml streptomycin, 400 μg/ml G418 and 5 μg/ml puromycin. […] Test compounds were added to the assay plate and agonist activity was monitored as fluorescence for 80 seconds with a FLIPR (488 nm excitation; 510-570 nm emission; Molecular Devices). […]
Rule for this label: yes (1) means IC50 is less than 10 nM; no (0) means IC50 is at least 10 nM.

Examples with answers:
| compound | className |
| --- | --- |
| C[C@H]1C(=O)N2[C@@H](CCCN3CCC4(CC4)[C@H](O)C3)CO[C@@H]2CN1C(=O)Nc1cccc(Cl)c1 [Example 20] | no (0) |
| C[C@H]1C(=O)N2[C@@H](CCCN3CCC4(CC4)[C@H](O)C3)CO[C@@]2(C)CN1C(=O)Nc1ccc(Cl)c(Cl)c1 [Example 21] | yes (1) |
| C[C@H]1C(=O)N2C(CN1C(=O)Nc1cccc(Cl)c1)OC[C@@H]2CCN1CCC2(CC2)[C@H](O)C1 (stereo partly drawn) [Example 3] | no (0) |
| C[C@H]1C(=O)N2[C@@H](CCCN3CCC4(CC4)[C@H](O)C3)COC2(C)CN1C(=O)Nc1ccc(C(F)(F)F)c(Cl)c1 (stereo partly drawn) [Example 13] | no (0) |
| C[C@H]1C(=O)N2C(CN1C(=O)Nc1ccc(Cl)c(Cl)c1)OC[C@@H]2CCC(=O)N1CCC2(CC2)[C@H](O)C1 (stereo partly drawn) [Example 23] | no (0) |

Next, consider the following compound.
Exam item: State whether 10 nM exceeds IC50 recorded for C[C@H]1C(=O)N2[C@@H](CCCN3CCC4(CC4)[C@H](O)C3)CO[C@H]2CN1C(=O)Nc1cccc(Cl)c1 [Example 19] .
Marked response: no (0)

----------
targetOfAssay: human chemokine receptor 2 isoform B (Homo sapiens, UniProt P41597)
assayProcedure: Calcium mobilization assay (CHOK1-CCR2B-A5 cells, FLIPR, MCP-1 stimulated)
measurementSetup: Ca mobilisation assay for CCR2, antagonist activity, 50% inhibition of specific calcium increases after 20 nM MCP-1
assayEndpoint: pIC50
Give bare numbers, as −log10 of the molar value.

| compound | testResult |
| --- | --- |
| C[C@H]1C(=O)N2[C@@H](CCN3CCC4(CC4)C(F)(F)C3)COC[C@H]2CN1C(=O)Nc1cccc(Cl)c1 [Example 54] | 6.77 |
| C[C@H]1C(=O)N2C(CN1C(=O)Nc1cccc(Cl)c1)OC[C@@H]2CCCN1CCC2(CC2)[C@H](O)C1 (stereo partly drawn) [Example 15] | 7.48 |

Would you kindly look at the next entry?
Exam item: I have this compound here, C[C@H]1C(=O)N2[C@@H](CCN3CCC4(CC4)[C@H](O)C3)CCC[C@H]2CN1C(=O)Nc1cccc(F)c1 [Example 67] , and I need its recorded pIC50.
Marked response: 8.10
